These data points were gathered from ChEMBL document CHEMBL1128997.

Target or system DNA topoisomerase 1 (Homo sapiens): recorded log10 IC50 listed per item.
Log scale reminder: IC50 in µM, then log10 taken.

Consider the reported log10 IC50 for these compounds:
CC[C@@]1(O)C(=O)OCc2c1cc1n(c2=O)Cc2cc3c(NC=N)cccc3nc2-1.Cl :: 1.31
CC[C@@]1(O)C(=O)OCc2c1cc1n(c2=O)Cc2cc3c(N)cccc3nc2-1 :: 0.62
CC[C@@]1(O)C(=O)OCc2c1cc1n(c2=O)Cc2cc3c(/N=C/N4CCOCC4)cccc3nc2-1 :: 1.84
CC[C@@]1(O)C(=O)OCc2c1cc1n(c2=O)Cc2cc3cc(/N=C/N(C)C)ccc3nc2-1 :: 1.62

Q) Query the reported log10 IC50 for DNA topoisomerase 1 (Homo sapiens); item: CC[C@@]1(O)C(=O)OCc2c1cc1n(c2=O)Cc2cc3c(/N=C(\C)N(C)C)cccc3nc2-1
A) 0.54

Q) Query the reported log10 IC50 for DNA topoisomerase 1 (Homo sapiens); item: CC[C@@]1(O)C(=O)OCc2c1cc1n(c2=O)Cc2cc3c(/N=C/N(C)C)cccc3nc2-1.Cl
A) 1.28

Q) Query the reported log10 IC50 for DNA topoisomerase 1 (Homo sapiens); item: CC[C@@]1(O)C(=O)OCc2c1cc1n(c2=O)Cc2cc3c(/N=C/N(C)c4ccccc4)cccc3nc2-1
A) 0.34

Q) Query the reported log10 IC50 for DNA topoisomerase 1 (Homo sapiens); item: CC[C@@]1(O)C(=O)OCc2c1cc1n(c2=O)Cc2cc3c(N/C=N/C)cccc3nc2-1.Cl
A) 0.82

Q) Query the reported log10 IC50 for DNA topoisomerase 1 (Homo sapiens); item: CCc1c2c(nc3cccc(/N=C/N(C)C)c13)-c1cc3c(c(=O)n1C2)COC(=O)[C@]3(O)CC
A) 0.56
